molecular target: human CXCR3 (N-delta 4) (Homo sapiens, UniProt P49682); construct: CD8 leader; Flag tag; expressed in transfected cells; membranes used; experiment: Human CXCR3 (N-delta 4) scintillation proximity assay (SPA), [125I] IP-10 binding; settings: IC50 rating; Ba/F3-hCXCR3 (N-delta 4) membranes, 25 pM [125I] IP-10
Sequence (P49682 5-368 limits assumed): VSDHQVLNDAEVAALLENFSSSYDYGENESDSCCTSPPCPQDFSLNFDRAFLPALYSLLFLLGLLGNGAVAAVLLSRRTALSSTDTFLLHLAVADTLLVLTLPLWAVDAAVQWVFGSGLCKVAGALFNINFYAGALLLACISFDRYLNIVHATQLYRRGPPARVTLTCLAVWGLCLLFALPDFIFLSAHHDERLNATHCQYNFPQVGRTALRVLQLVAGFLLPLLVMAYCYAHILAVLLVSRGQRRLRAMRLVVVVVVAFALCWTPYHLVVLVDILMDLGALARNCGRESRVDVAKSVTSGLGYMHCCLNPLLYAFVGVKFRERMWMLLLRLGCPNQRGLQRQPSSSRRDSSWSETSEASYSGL
pIC50: −log10 of the molar value.
OBSERVED PROPERTY: pIC50

// below: answered compounds
CC1CN(c2ncc(C(=O)NCc3ccc(Cl)c(Cl)c3)cc2Cl)CCN1C1CCN(Cc2ccc(Cl)cc2)CC1 (centres unmarked)    > 7.60
CC1CC(N2CCN(c3ncc(C(=O)NCc4ccc(Cl)c(Cl)c4)cc3Cl)CC2)CCN1Cc1ccc(C#N)cc1 (centres unmarked)    7.00 to 7.60
N#Cc1ccc(CN2CCC(N3CCN(c4ncc(C(=O)NCc5ccc(F)c(Cl)c5)cc4Cl)CC3)CC2)cc1    7.00 to 7.60
Cc1cc(C(=O)NCc2ccc(F)c(F)c2)cnc1N1CCN(C2CCN(Cc3ccc(Cl)cc3)CC2)CC1    < 7.00

Request the reported pIC50 associated with COc1ccc(CN2CCC(N3CCN(c4ncc(C(=O)NCc5ccc(F)cc5F)cc4Cl)CC3)CC2)cc1 < 7.00

Which pIC50 value belongs to O=C(NCc1ccc(F)cc1F)c1cnc(N2CCN(C3CCN(Cc4ccc(Br)cc4F)CC3)CC2)c(Cl)c1 ? < 7.00

Which pIC50 value belongs to O=C(NCc1ccc(Br)cc1)c1cnc(N2CCN(C3CCN(Cc4ccc(F)c(F)c4)CC3)CC2)c(Cl)c1 ? 7.00 to 7.60

Bench note: what pIC50 did CC(c1ccc([N+](=O)[O-])cc1)N1CCC(N2CCN(c3ncc(C(=O)NCc4ccc(F)c(F)c4)cc3Cl)CC2)CC1 (centres unmarked) show? < 7.00

Param item = CC[C@H]1CN(c2ncc(CO)cc2Cl)CCN1C1CCN(Cc2ccc(Br)cc2F)CC1 ; retrieve measured pIC50. > 7.60

What does the data say about its pIC50? Entry: CC[C@H]1CN(c2ncc(C(=O)NC)cc2Cl)CCN1C1CCN(Cc2ccc(Cl)cc2F)CC1 > 7.60

// pIC50 lookup, key: CCNC(=O)c1cnc(N2C[C@H](CC)N(C3CCN(Cc4ccc(Cl)cc4)CC3)C[C@H]2C)c(Cl)c1 > 7.60

What does the data say about its pIC50? Entry: N#Cc1ccc(CN2CCC(N3CCN(c4ncc(C(=O)NCc5cccc(Cl)c5)cc4Cl)CC3)CC2)cc1 < 7.00

// query pIC50 value for entry O=C(NCc1cccc(Cl)c1)c1cnc(N2CCN(C3CCN(Cc4ccc(Br)cc4)CC3)CC2)c(Cl)c1 < 7.00

// query pIC50 value for entry COc1ccc(CN2CCC(N3CCN(c4ncc(C(=O)NCc5ccc(C(F)(F)F)cc5)cc4Cl)CC3)CC2)cc1 < 7.00
